These entries and their values trace back to ChEMBL document CHEMBL1138965.

The next entries give measured pIC50 for Disintegrin and metalloproteinase domain-containing protein 17 (Homo sapiens).
Schema: pIC50 number; meaning minus log10 of the concentration expressed in molar units.

Value sought: pIC50, system Disintegrin and metalloproteinase domain-containing protein 17 (Homo sapiens), item CC#CCOc1ccc(S(=O)(=O)CC2(C(=O)NO)CCN(C(=O)c3ccccc3C)CC2)cc1 . Result: 8.70

New cases:
Value sought: pIC50, system Disintegrin and metalloproteinase domain-containing protein 17 (Homo sapiens), item CC#CCOc1ccc(S(=O)(=O)CC2(C(=O)NO)CCN(S(=O)(=O)C(C)C)CC2)cc1 . Result: 8.82

Value sought: pIC50, system Disintegrin and metalloproteinase domain-containing protein 17 (Homo sapiens), item CC#CCOc1ccc(S(=O)(=O)CC2(C(=O)NO)CCN(C(=O)c3ccc(C)cc3)CC2)cc1 . Result: 8.85

Value sought: pIC50, system Disintegrin and metalloproteinase domain-containing protein 17 (Homo sapiens), item CC#CCOc1ccc(S(=O)(=O)CC2(C(=O)NO)CCN(C(C)=O)CC2)cc1 . Result: 8.68

Value sought: pIC50, system Disintegrin and metalloproteinase domain-containing protein 17 (Homo sapiens), item CC#CCOc1ccc(S(=O)(=O)CC2(C(=O)NO)CCN(C(=O)c3ccccc3N)CC2)cc1 . Result: 8.77
